test system: Bacillus subtilis; assay: Antibiotic activity against Bacillus subtilis ATCC 6051 assessed as inhibition of bacterial growth incubated for 16 hrs in presence of 0.002% polysorbate 80; assay type: functional
Bridge positions count the residues as written; N and C are the ends. Square brackets hold non-standard residues; d marks the D form. Side chains are listed from the residue outwards. Peptide text beside a SMILES is read from it. * marks the point of attachment. Ser(O-(NMe-dPhe-Ile)) = CC[C@H](C)[C@H](NC(=O)[C@@H](Cc1ccccc1)NC)C(=O)OC[C@H](N)C(=O)*; d(aIle) = CC[C@H](C)[C@@H](N)C(=O)O; Chg = N[C@H](C(=O)O)C1CCCCC1
Readout: MIC (µg/mL)

compound="CC[C@H](C)[C@H](NC(=O)[C@@H](Cc1ccccc1)NC)C(=O)OC[C@H](N)C(=O)N[C@H](CCCNC(=N)N)C(=O)N[C@@H](C(=O)N[C@H](C(=O)OC[C@H](N)C(=O)N[C@H]1C(=O)N[C@@H](C)C(=O)N[C@@H](C2CCCCC2)C(=O)N[C@@H]([C@@H](C)CC)C(=O)O[C@H]1C)[C@@H](C)CC)[C@@H](C)CC (H-S([Ile-d(aIle)-dR-Ser(O-(NMe-dPhe-Ile))])[dT]A[Chg]I; ester 2-C)" readout=MIC recorded_value=0.125
